Taken from patent US20150353608A1.

# SYSTEM_UNDER_TEST: human Fc region manufactured by Jackson ImmunoResearch Laboratories, Inc. (human)
# EXPERIMENT_SUMMARY: phage ELISA, HRP-labelled Fc
Ends that are not written are not given here.
RESULT_TYPE: O.D. 415

BINDER	ASSAY_VALUE
recombinant phage displaying polypeptide SEQ ID NO: 64 (protein, T7 phage, not shown: large carriers, ends and bridges not checked) IPYGFPGRGEYDPETGTWYDAAWHLGELVWATYYDPETGTWEPDWQRMLGQ	0.213
DAAWHLGELVWATYYDPETGTWLPDWQTMAQK (peptide, T7 phage, not shown: large carriers, ends and bridges not checked) [recombinant phage displaying polypeptide SEQ ID NO: 26]	0.43
recombinant phage displaying polypeptide SEQ ID NO: 72 (protein, T7 phage, not shown: large carriers, ends and bridges not checked) FVSSLPNSAMYDPETGTWYDAAWHLGELVWATYYDPETGTWEPDWQRMLGQ	0.229
DAAWHLGELVWATYYDPETGTWKPDWRMMGVP (peptide, T7 phage, not shown: large carriers, ends and bridges not checked) [recombinant phage displaying polypeptide SEQ ID NO: 36]	0.287
YDPVTGTWTSSIASWMG (peptide, T7 phage, not shown: large carriers, ends and bridges not checked) [recombinant phage displaying polypeptide SEQ ID NO: 8]	0.223
YDPGTGTWRSWLSFNVG (peptide, T7 phage, not shown: large carriers, ends and bridges not checked) [recombinant phage displaying polypeptide SEQ ID NO: 5]	0.155
recombinant phage displaying polypeptide SEQ ID NO: 67 (protein, T7 phage, not shown: large carriers, ends and bridges not checked) VPPRFSSSAQYDPETGTWYDAAWHLGELVWATYYDPETGTWEPDWQRMLGQ	0.25
DAAWHLGELVWATYYDPETGTWEPDWSKMRPQ (peptide, T7 phage, not shown: large carriers, ends and bridges not checked) [recombinant phage displaying polypeptide SEQ ID NO: 34]	0.281
DAAWHLGELVWATYYDPETGTWLPDWDYMSSK (peptide, T7 phage, not shown: large carriers, ends and bridges not checked) [recombinant phage displaying polypeptide SEQ ID NO: 37]	0.235
YDPYTGTWRSSIWVLSG (peptide, T7 phage, not shown: large carriers, ends and bridges not checked) [recombinant phage displaying polypeptide SEQ ID NO: 4]	0.165
recombinant phage displaying polypeptide SEQ ID NO: 65 (protein, T7 phage, not shown: large carriers, ends and bridges not checked) GPYNIPDSAVYDPETGTWYDAAWHLGELVWATYYDPETGTWEPDWQRMLGQ	0.291
